All figures here come from patent US20230233650A1.

- EXPERIMENTAL SYSTEM: T1, Human CRF1 receptor (Corticotropin-Releasing Factor receptor 1) (human), P34998
- T1 chain: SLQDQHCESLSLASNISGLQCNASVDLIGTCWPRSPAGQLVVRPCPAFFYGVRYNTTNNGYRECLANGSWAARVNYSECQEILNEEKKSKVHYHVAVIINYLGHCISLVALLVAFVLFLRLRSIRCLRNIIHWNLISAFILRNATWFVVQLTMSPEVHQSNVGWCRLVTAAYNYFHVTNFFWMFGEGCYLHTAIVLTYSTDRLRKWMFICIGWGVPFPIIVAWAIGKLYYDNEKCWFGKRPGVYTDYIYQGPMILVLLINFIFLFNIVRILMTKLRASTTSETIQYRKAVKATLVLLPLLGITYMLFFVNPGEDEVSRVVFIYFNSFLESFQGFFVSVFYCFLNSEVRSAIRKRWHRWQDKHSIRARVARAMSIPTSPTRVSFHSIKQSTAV
- ASSAY METHOD TEXT: SPA, displacement of [125I]-Sauvagine from membranes of CHO-K1 cells expressing the CRF1 receptor
- EXPERIMENTAL CONTEXT: remark: other sources report otherwise
Ends that are not written are not given here.
ASSAY READOUT: IC50 (nM)
Response body: numeric value in nM, unit text excluded.

// query Requested field: IC50. Item: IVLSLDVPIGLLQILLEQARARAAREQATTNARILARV-NH2 [Compound 2 - hUcn2 (human Urocortin 2 peptide)]
// result 447
